From: patent US20230322846A9

Target: [35S]-TBPS binding, rat brain cortical membranes
Assay: Steroid inhibition of [35S]-TBPS binding
Conditions: 3 nM [35S]-TBPS, in the presence of 5 mM GABA
Readout name: IC50

Worked examples, 2 compounds total:
C[C@H](Cc1ncc(CO)s1)[C@H]1CC[C@H]2[C@@H]3CC[C@@H]4C[C@](C)(O)CC[C@@H]4[C@H]3CC[C@]12C | < 100 nM
COC[C@@]1(O)CC[C@H]2[C@H](CC[C@@H]3[C@@H]2CC[C@]2(C)[C@@H]([C@H](C)NC(=O)c4ccc(F)cc4)CC[C@@H]32)C1 | 1000 to 10000 nM

Consider now this further compound.
[Q] Give the measured IC50 of CCOC[C@@]1(O)CC[C@H]2[C@H](CC[C@@H]3[C@@H]2CC[C@]2(C)[C@@H]([C@@H](CC)Cn4ccc(C#N)n4)CC[C@@H]32)C1 .
[A] 100 to 1000 nM
